Can you tell me pIC50 for the items I'm about to list?
TARGET: CDK4/cyclin D3 (Homo sapiens, UniProt P11802)
Construct: purchased Carna Biosciences, Inc. QS S Assist CDK4/Cyclin D3_FP Kit
Sequence (P11802 whole entry): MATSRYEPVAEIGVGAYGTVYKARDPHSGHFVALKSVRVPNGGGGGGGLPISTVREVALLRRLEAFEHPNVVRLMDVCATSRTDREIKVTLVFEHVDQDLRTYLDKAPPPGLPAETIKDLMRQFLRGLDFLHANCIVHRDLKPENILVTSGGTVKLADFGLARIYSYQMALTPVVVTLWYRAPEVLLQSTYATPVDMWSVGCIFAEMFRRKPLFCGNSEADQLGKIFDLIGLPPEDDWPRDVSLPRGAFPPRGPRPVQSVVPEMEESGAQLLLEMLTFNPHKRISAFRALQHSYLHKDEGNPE
Sequence (P30281 whole entry partner): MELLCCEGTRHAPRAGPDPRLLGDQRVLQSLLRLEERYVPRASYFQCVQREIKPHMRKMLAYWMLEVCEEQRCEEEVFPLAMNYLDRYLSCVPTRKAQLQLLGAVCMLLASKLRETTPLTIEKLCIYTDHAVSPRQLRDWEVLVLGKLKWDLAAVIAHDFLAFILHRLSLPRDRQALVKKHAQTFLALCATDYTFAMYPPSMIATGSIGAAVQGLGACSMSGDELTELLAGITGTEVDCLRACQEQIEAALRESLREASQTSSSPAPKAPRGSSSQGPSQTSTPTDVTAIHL
ASSAY COMMENT: Human CDK4/cyclin D3 inhibitory activity (QS S Assist CDK4/Cyclin D3_FP Kit, IMAP fluorescence polarization)
Type: biochemical
CONDITION LABEL: Human CDK4/cyclin D3 inhibitory activity; read-out: CDK4 Activity symbol
pIC50: −log10 of the molar value.

For CCN1CCN(Cc2ccc(Nc3ncc4cc([C@@H](C)OC)nc(NC(C)C)c4n3)nc2)CC1 the compound record lists pIC50 as > 8.00

For COC(C)c1cc2cnc(Nc3ccc(CN4CCNCC4)cn3)nc2c(NCC2(C)CC(O)CC(C)(C)C2)n1 (centres unmarked) the compound record lists pIC50 as > 8.00

For CC(C)Nc1nc([C@@H](C)O)cc2cnc(Nc3ccc(OCC4CNC4)nn3)nc12 the compound record lists pIC50 as > 8.00

For COCC(C)(C)Nc1nc([C@@H](C)O)cc2cnc(Nc3ccc(N4CC[C@H](O)CC4=O)cn3)nc12 the compound record lists pIC50 as 7.00 to 8.00

For COCC(C)(C)Nc1nc([C@@H](C)O)cc2cnc(Nc3ccc(CN4CCn5ccnc5C4)cn3)nc12 the compound record lists pIC50 as 7.00 to 8.00

For CC(C)Nc1nc([C@@H](C)O)cc2cnc(Nc3ccc(OCCN(C)C)cn3)nc12 the compound record lists pIC50 as > 8.00

For CC(O)c1cc2cnc(Nc3ccc(N4CCNCC4=O)cn3)nc2c(NC2CCCOC2)n1 (centres unmarked) the compound record lists pIC50 as > 8.00

For COC(C)c1cc2cnc(Nc3ccc(CN4CCNCC4)cn3)nc2c(Nc2cccc(F)c2)n1 (centres unmarked) the compound record lists pIC50 as 7.00 to 8.00

----------
TARGET: CDK2/cyclin A2 (Homo sapiens)
Construct: purchased Carna Biosciences, Inc. QS S Assist CDK2/Cyclin A2_FP Kit
ASSAY COMMENT: Human CDK2/cyclin A2 inhibitory activity (QS S Assist CDK2/Cyclin A2_FP Kit, IMAP fluorescence polarization)
Assay type: biochemical
CONDITION LABEL: Human CDK2/cyclin A2 inhibitory activity; read-out: CDK2 Activity symbol
METRIC NAME: IC50

For O[C@H]1CC[C@H](Nc2nc(C(F)F)cc3cnc(Nc4ccc(N5CCNCC5)nn4)nc23)CC1 the molecule record lists IC50 as 10 to 100 nM

For CC(C)Nc1nc([C@@H](C)O)cc2cnc(Nc3ccc(N4CCC(N(C)C)CC4)nn3)nc12 the molecule record lists IC50 as ≥ 100 nM

For CNCCCOc1ccc(Nc2ncc3cc([C@@H](C)OC)nc(NC(C)C)c3n2)nc1 the molecule record lists IC50 as ≥ 100 nM

For CC(C)N(C)c1nc(C(F)F)cc2cnc(Nc3ccc(N4CCNCC4)cn3)nc12 the molecule record lists IC50 as ≥ 100 nM

----------
TARGET: CDK4/cyclin D3 (Homo sapiens)
Construct: purchased Carna Biosciences, Inc. QS S Assist CDK4/Cyclin D3_FP Kit
ASSAY COMMENT: Human CDK4/cyclin D3 inhibitory activity (QS S Assist CDK4/Cyclin D3_FP Kit, IMAP fluorescence polarization)
Type: biochemical
CONDITION LABEL: Human CDK4/cyclin D3 inhibitory activity; read-out: CDK4 Activity symbol
pIC50: −log10 of the molar value.
METRIC NAME: pIC50

For CC(C)Nc1nc(C(F)F)cc2cnc(Nc3ccc(OCCN(C)C)cn3)nc12 the compound record lists pIC50 as > 8.00

For CNC1CC2(C1)CN(c1ccc(Nc3ncc4cc([C@@H](C)OC)nc(NC(C)C)c4n3)nc1)C2 the compound record lists pIC50 as > 8.00

For COC(C)c1cc2cnc(Nc3ccc(CN4CCNCC4)cn3)nc2c(Nc2ccc(C(=O)O)cc2)n1 (centres unmarked) the compound record lists pIC50 as ≤ 7.00

For COC(C)c1cc2cnc(Nc3ccc(CN4CCNCC4)cn3)nc2c(NC2CCOC(C)(C)C2)n1 (centres unmarked) the compound record lists pIC50 as > 8.00

For CC(C)Nc1nc(C(F)F)cc2cnc(Nc3ccccn3)nc12 the compound record lists pIC50 as 7.00 to 8.00

For CNc1nc(C(C)O)cc2cnc(Nc3ccc(N4CCNCC4)cn3)nc12 (centres unmarked) the compound record lists pIC50 as 7.00 to 8.00

For CC(O)c1cc2cnc(Nc3ccc(N4CCNCC4)cn3)nc2c(NC(C)(C)C)n1 (centres unmarked) the compound record lists pIC50 as > 8.00

For COCC(C)(C)Nc1nc([C@@H](C)O)cc2cnc(Nc3ccc(N4CCNCC4=O)cn3)nc12 the compound record lists pIC50 as > 8.00

Reference source for all entries: patent US10124004B2
